Target: recombinant RORγ Ligand Binding Domain (LBD) protein (Homo sapiens, UniProt P51449)
Construct: 6×His; GST
Assay: Radio-Ligand RORγ Binding Assay (Assay 1)
Conditions: radio-ligand competition, 25-hydroxy [26,27-3H]-cholesterol, RORγ LBD; read-out: Avg ROR Bind Ki
pKi: −log10 of the molar value.

compound: CCC1CN(C2CCC(C(F)(F)F)CC2)Cc2cc(C(=O)NC(CO)c3ccc(S(=O)(=O)CC)cc3)ccc21 (single isomer, unassigned) [Hy7-35.2]
pKi: > 7.00
//
compound: CC[C@@H]1CN(c2ncc(C(F)(F)F)cn2)Cc2cc(C(=O)N[C@@H](CO)c3ccc(S(=O)(=O)CC)cn3)ccc21 (single isomer, unassigned)
pKi: > 7.00
//
compound: CC[C@H]1CN(c2ncc(-c3cccc(OC)n3)cn2)Cc2cc(C(=O)NCc3ccc(S(=O)(=O)CC)cc3)ccc21 (single isomer, unassigned)
pKi: 6.00 to 7.00
//
compound: CCS(=O)(=O)c1ccc(CNC(=O)c2ccc3c(c2)CCN(c2ncc(C(F)(F)F)cn2)C3C(C)C)cc1 (stereo not drawn)
pKi: 6.00 to 7.00
//
compound: CCC1c2ccc(C(=O)NC(CO)c3ccc(S(=O)(=O)CC)cc3)cc2CCN1CC1CCC(C(F)(F)F)CC1 (single isomer, unassigned) [Hy2A-28.2]
pKi: > 7.00
//
compound: CCOC(=O)c1cnc(N2CCc3cc(C(=O)NCc4ccc(S(=O)(=O)CC)cc4)ccc3C2C(C)C)nc1C(F)(F)F (racemic)
pKi: 6.00 to 7.00
//
compound: CCC1c2ccc(C(=O)NC(CO)c3ccc(S(=O)(=O)CC)cc3)cc2CCN1CC1CCC(C(F)(F)F)CC1 (single isomer, unassigned) [Hy2A-28.1]
pKi: > 7.00
//
compound: CCS(=O)(=O)c1ccc([C@H](CO)NC(=O)c2ccc3c(OC[C@H]4CC[C@H](C(F)(F)F)CC4)nc(Cl)cc3c2)cc1
pKi: > 7.00
//
compound: CCS(=O)(=O)c1ccc(CNC(=O)c2ccc3c(c2)CN(c2ncc(-c4ccn(C)c(=O)c4)cn2)C[C@@H]3C(C)C)cc1 (single isomer, unassigned)
pKi: < 6.00
//
compound: CC[C@H]1CN(c2ccc(C(F)(F)F)cc2)C(=O)c2cc(C(=O)NCc3ccc(S(=O)(=O)CC)cc3)ccc21 (single isomer, unassigned)
pKi: > 7.00
//
compound: CC[C@@H]1CN(C2CCC(F)(F)CC2)Cc2cc(C(=O)N[C@@H](CO)c3ccc(S(=O)(=O)CC)cc3)ccc21 (single isomer, unassigned)
pKi: > 7.00
//
compound: CC[C@@H]1CN(c2ccc(C(F)(F)F)cc2)C(=O)c2cc(C(=O)NCc3ccc(S(=O)(=O)CC)cc3)ccc21 (single isomer, unassigned)
pKi: > 7.00

###

Target: full-length RORγt in Jurkat cells (Homo sapiens)
Construct: transcriptional activity of the full-length RORγt in Jurkat cells; host or cells: Jurkat cells (ATCC TIB-152)
Assay: RORγt 5×RORE Assay in Jurkat Cells (Assay 2)
Format: cell-based
Settings: 5×RORE luciferase reporter, head without unit (Tables 15, 17), read-out: Avg ROR γt/5x IC50
pIC50: −log10 of the molar value.
readoutType: pIC50

compound: CCS(=O)(=O)c1ccc(CNC(=O)c2cc3ccnc(OC[C@H]4CC[C@H](C(F)(F)F)CC4)c3n2C)cc1
result: 6.00 to 7.00
//
compound: CCS(=O)(=O)c1ccc(CNC(=O)c2cc3ccnc(OCc4ccc(C(F)(F)F)cc4)c3n2C)cc1
result: 6.00 to 7.00
//
compound: CCS(=O)(=O)c1ccc([C@H](CO)NC(=O)c2cc3ccnc(OC[C@H]4CC[C@H](C(F)(F)F)CC4)c3n2C)cc1
result: > 7.00
//
compound: CCS(=O)(=O)c1ccc(CNC(=O)c2cnc3c(c2)CCN(Cc2ccc(Cl)cc2)C3C(C)C)cc1 (single isomer, unassigned)
result: 6.00 to 7.00

###

Molecular target: full-length RORγt in Jurkat cells (Homo sapiens, UniProt P51449)
Construct: transcriptional activity of the full-length RORγt in Jurkat cells; host or cells: Jurkat cells (ATCC TIB-152)
Sequence (P51449 1-497 isoform P51449-2): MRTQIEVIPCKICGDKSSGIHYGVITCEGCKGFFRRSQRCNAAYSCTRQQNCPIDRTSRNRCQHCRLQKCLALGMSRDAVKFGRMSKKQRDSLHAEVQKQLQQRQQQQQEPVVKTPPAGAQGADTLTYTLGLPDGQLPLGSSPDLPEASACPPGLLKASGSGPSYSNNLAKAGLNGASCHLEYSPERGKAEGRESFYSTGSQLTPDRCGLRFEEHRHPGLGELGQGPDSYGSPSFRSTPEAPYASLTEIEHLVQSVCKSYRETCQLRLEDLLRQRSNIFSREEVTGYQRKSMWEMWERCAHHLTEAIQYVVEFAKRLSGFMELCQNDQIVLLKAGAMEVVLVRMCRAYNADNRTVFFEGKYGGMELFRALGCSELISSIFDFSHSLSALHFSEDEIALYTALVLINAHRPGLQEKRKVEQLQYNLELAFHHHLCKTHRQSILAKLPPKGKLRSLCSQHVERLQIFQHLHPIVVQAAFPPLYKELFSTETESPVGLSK
Experiment: RORγt 5×RORE Assay in Jurkat Cells (Assay 2)
Type: cell-based
Details: 5×RORE luciferase reporter, Table 20, read-out: Avg ROR γt/5x IC5
pIC50: −log10 of the molar value.
Listed here: items and their measured pIC50.

compound: CCS(=O)(=O)c1ccc(CNC(=O)c2ccc3c(c2)CN(Cc2ccc(C#N)cc2)C[C@H]3C(C)C)cc1 (single isomer, unassigned)
pIC50: 6.00 to 7.00

compound: CCS(=O)(=O)c1ccc(CNC(=O)c2ccc3c(c2)CN(c2ncc(Cl)cn2)C[C@H]3C(C)C)cc1 (single isomer, unassigned)
pIC50: 6.00 to 7.00

compound: CCS(=O)(=O)c1ccc(CNC(=O)c2ccc3c(c2)CN(c2ncc(-c4ccnc(OC)c4)cn2)C[C@H]3C(C)C)cc1 (single isomer, unassigned)
pIC50: > 7.00

compound: CCS(=O)(=O)c1ccc(CNC(=O)c2ccc3c(c2)CN(c2ncc(-c4ccc(=O)[nH]c4)cn2)C[C@H]3C(C)C)cc1 (single isomer, unassigned)
pIC50: 6.00 to 7.00

compound: CC[C@@H]1CN(c2ccc(C(F)(F)F)cn2)Cc2cc(C(=O)NCc3ccc(S(=O)(=O)CC)cc3)ccc21 (single isomer, unassigned)
pIC50: > 7.00

compound: CCS(=O)(=O)c1ccc(CNC(=O)c2ccc3c(c2)CN(c2ncc(C(F)(F)F)cn2)C[C@@H]3C(F)(F)F)cc1 (single isomer, unassigned)
pIC50: < 6.00

compound: CCS(=O)(=O)c1ccc(CNC(=O)c2ccc3c(c2)CN(c2ncc(-c4ccn(C)c(=O)c4)cn2)C[C@H]3C(C)C)cc1 (single isomer, unassigned)
pIC50: 6.00 to 7.00

compound: CCS(=O)(=O)c1ccc(CNC(=O)c2ccc3c(c2)CN(c2ncc(Cl)cn2)C[C@@H]3C(C)C)cc1 (single isomer, unassigned)
pIC50: < 6.00

compound: CCS(=O)(=O)c1ccc(CNC(=O)c2ccc3c(c2)CN(c2ncc(C(F)(F)F)cn2)C[C@H]3C(F)(F)F)cc1 (single isomer, unassigned)
pIC50: > 7.00

compound: CC[C@H]1CN(c2ncc(C(F)(F)F)cn2)Cc2cc(C(=O)NCc3ccc(S(=O)(=O)CC)cn3)ccc21 (single isomer, unassigned)
pIC50: > 7.00

compound: CCC1CN(c2ncc(C(F)(F)F)cn2)Cc2cc(C(=O)N[C@@H](CO)c3ccc(S(=O)(=O)CC)cc3)ccc21 (single isomer, unassigned) [Hy7-17.1]
pIC50: > 7.00

compound: CC[C@H]1CN(c2ccc(C(F)(F)F)cc2)C(=O)c2cc(C(=O)NCc3ccc(S(=O)(=O)CC)cc3)ccc21 (single isomer, unassigned)
pIC50: 6.00 to 7.00

compound: CCS(=O)(=O)c1ccc(CNC(=O)c2ccc3c(c2)CN(Cc2ccc(F)cc2)C[C@@H]3C(C)C)cc1 (single isomer, unassigned)
pIC50: > 7.00

compound: CCS(=O)(=O)c1ccc(CNC(=O)c2ccc3c(c2)CN(c2nccc(C(F)(F)F)n2)C[C@H]3C(C)C)cc1 (single isomer, unassigned)
pIC50: < 6.00

compound: CC[C@H]1CN(c2ncc(-c3ncco3)cn2)Cc2cc(C(=O)NCc3ccc(S(=O)(=O)CC)cc3)ccc21 (single isomer, unassigned)
pIC50: < 6.00

compound: CC[C@@H]1CN(c2ccc(C(F)(F)F)cc2)Cc2cc(C(=O)NCc3ccc(S(=O)(=O)CC)cc3)ccc21 (single isomer, unassigned)
pIC50: > 7.00

compound: CC[C@H]1CN(c2ncc(C(F)(F)F)cn2)Cc2cc(C(=O)NCc3ccc(S(=O)(=O)CC)cc3)ccc21 (single isomer, unassigned)
pIC50: < 6.00

compound: CCOC(=O)c1cnc(N2Cc3cc(C(=O)N[C@@H](CO)c4ccc(S(=O)(=O)CC)cc4)ccc3[C@H](CC)C2)nc1 (single isomer, unassigned)
pIC50: > 7.00

compound: CC[C@@H]1CN(c2ncc(C(F)(F)F)cn2)Cc2cc(C(=O)N[C@H](CO)c3ccc(S(=O)(=O)CC)cn3)ccc21 (single isomer, unassigned)
pIC50: < 6.00

compound: CCOc1cnc(N2Cc3cc(C(=O)NCc4ccc(S(=O)(=O)CC)cc4)ccc3[C@H](C(C)C)C2)nc1 (single isomer, unassigned)
pIC50: 6.00 to 7.00

compound: CC[C@H]1CN(c2ncc(-c3ncco3)cn2)Cc2cc(C(=O)N[C@@H](CO)c3ccc(S(=O)(=O)CC)cc3)ccc21 (single isomer, unassigned)
pIC50: 6.00 to 7.00

compound: CCS(=O)(=O)c1ccc(CNC(=O)c2ccc3c(c2)CN(Cc2ccc(Cl)cc2)C[C@@H]3C(C)C)cc1 (single isomer, unassigned)
pIC50: 6.00 to 7.00
